details: 313.15 K; 101.33 kPa; Liquid
assay_metric: mass density (kg/m3)

{"compound": "CCO [ethanol]", "assay_metric": "mass density", "unit_tag": "kg/m3", "value_measured": 772.61}
{"compound": "CCCO [propan-1-ol]", "assay_metric": "mass density", "unit_tag": "kg/m3", "value_measured": 787.34}
{"compound": "CCC(C)O (stereo unspecified) [butan-2-ol]", "assay_metric": "mass density", "unit_tag": "kg/m3", "value_measured": 790.11}
{"compound": "OCCN1CCOCC1 [4-morpholineethanol]", "assay_metric": "mass density", "unit_tag": "kg/m3", "value_measured": 1059.19}
{"compound": "CCCCO [butan-1-ol]", "assay_metric": "mass density", "unit_tag": "kg/m3", "value_measured": 794.34}
{"compound": "CC(C)O [propan-2-ol]", "assay_metric": "mass density", "unit_tag": "kg/m3", "value_measured": 767.83}

* * *

conditions: 303.15 K; 101.33 kPa; Liquid
assay_metric: mass density (kg/m3)

{"compound": "CC(C)O [propan-2-ol]", "unit_tag": "kg/m3", "mass density": 776.66}
{"compound": "CCO [ethanol]", "unit_tag": "kg/m3", "mass density": 780.72}
{"compound": "CCC(C)O (stereo unspecified) [butan-2-ol]", "unit_tag": "kg/m3", "mass density": 797.76}
{"compound": "CCCCO [butan-1-ol]", "unit_tag": "kg/m3", "mass density": 801.99}
{"compound": "OCCN1CCOCC1 [4-morpholineethanol]", "unit_tag": "kg/m3", "mass density": 1066.51}
{"compound": "CCCO [propan-1-ol]", "unit_tag": "kg/m3", "mass density": 795.58}

* * *

test: xn = mol fraction of the nth substance listed; details: 303.15 K; 101 kPa; Liquid; x1 = 0.9844
assay_metric: mass density (kg/m3)

{"compound": "OCCN1CCOCC1 [4-morpholineethanol] + CC(C)O", "mass density, kg/m3": 1064.23}
{"compound": "OCCN1CCOCC1 [4-morpholineethanol] + CCCCO", "mass density, kg/m3": 1063.75}
{"compound": "OCCN1CCOCC1 [4-morpholineethanol] + CCC(C)O", "mass density, kg/m3": 1063.69}
{"compound": "OCCN1CCOCC1 [4-morpholineethanol] + CCO", "mass density, kg/m3": 1065.69}
